ASSAY SYSTEM: T1, human Protein S (human, UniProt P07225 42-676)
T1 construct: Called 'full length Protein S' / 'human full-length Protein S'; It was coated on plates (ELISA), Eu-labeled (LANCE) or immobilized on a chip (Biacore); also called PS; full length Protein S
T1 sequence: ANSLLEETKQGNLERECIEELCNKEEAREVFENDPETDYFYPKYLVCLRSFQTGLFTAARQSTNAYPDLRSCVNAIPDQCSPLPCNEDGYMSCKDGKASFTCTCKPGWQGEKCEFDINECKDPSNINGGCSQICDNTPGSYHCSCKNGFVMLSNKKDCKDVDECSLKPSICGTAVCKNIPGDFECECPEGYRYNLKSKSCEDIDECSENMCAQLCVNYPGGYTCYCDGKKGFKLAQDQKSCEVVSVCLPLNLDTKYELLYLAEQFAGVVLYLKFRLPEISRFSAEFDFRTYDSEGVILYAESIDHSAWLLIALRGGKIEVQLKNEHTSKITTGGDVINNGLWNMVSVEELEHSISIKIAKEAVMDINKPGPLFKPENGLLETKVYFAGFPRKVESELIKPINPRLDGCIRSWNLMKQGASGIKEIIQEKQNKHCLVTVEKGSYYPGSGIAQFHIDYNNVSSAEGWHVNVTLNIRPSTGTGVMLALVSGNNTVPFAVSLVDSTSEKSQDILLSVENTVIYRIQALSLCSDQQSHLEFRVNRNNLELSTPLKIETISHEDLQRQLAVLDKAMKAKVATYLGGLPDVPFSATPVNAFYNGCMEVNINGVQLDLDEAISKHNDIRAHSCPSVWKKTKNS
ASSAY EXPLANATION: Biacore (SPR), Protein S immobilized, 37 °C
Description: Protein S affinity also was determined via Biacore (Biacore 3000 or Biacore T200) using human full-length Protein S and human GAS6. Briefly, 1000 RU of Protein S or GAS6 were immobilized on a CMS chip. In order to probe the kinetics of Protein S binding peptides to Protein S, the peptides were injected at various concentrations in a HBS-buffer containing 3 mM CaCl₂ and 1% DMSO to the flow cell and allowed to interact with the immobilized proteins on the sensor chip. […]
QUANTITY MEASURED: Kd

1. Ac-TGLVSAGWYDYNFDHYREFT-NH2 (also called parent peptide JBS2572) [JBS2572]    3.8 nM
